# Target Or System: Cyclin-dependent kinase 4/cyclin D1 (Homo sapiens, UniProt P11802)
# Sequence (P11802 whole entry): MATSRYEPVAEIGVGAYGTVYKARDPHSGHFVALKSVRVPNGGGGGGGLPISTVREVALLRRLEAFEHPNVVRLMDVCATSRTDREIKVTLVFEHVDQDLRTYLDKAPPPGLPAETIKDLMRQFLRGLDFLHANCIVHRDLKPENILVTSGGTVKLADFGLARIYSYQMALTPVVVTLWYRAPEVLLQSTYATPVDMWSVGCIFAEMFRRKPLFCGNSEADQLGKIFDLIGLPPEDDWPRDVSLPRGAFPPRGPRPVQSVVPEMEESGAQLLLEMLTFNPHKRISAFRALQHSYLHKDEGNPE
# Sequence (P24385 whole entry, further chain): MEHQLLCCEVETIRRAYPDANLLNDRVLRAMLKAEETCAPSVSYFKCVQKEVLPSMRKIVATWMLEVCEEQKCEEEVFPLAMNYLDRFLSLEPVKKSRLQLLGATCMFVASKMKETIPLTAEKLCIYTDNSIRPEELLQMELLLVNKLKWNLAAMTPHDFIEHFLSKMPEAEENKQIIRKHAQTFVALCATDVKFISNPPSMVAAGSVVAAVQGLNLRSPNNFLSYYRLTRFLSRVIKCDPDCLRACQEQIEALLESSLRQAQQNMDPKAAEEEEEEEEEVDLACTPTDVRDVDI
# Assay Summary: inhibition of CDK4/Cyclin D1
pKi: −log10 of the molar value.
pKi of 7 or higher: MET. Under 7: NOT MET.

Worked set:
>  <Smiles Code>
Cc1nc2c(s1)-c1nc(N)ncc1CC2

>  <Target Or System>
Cyclin-dependent kinase 4/cyclin D1 (Homo sapiens, UniProt P11802)

>  <Class Assignment>
NOT MET

$$$$
>  <Smiles Code>
Cc1nc2c(s1)-c1nc(Nc3cccc([N+](=O)[O-])c3)ncc1CC2

>  <Target Or System>
Cyclin-dependent kinase 4/cyclin D1 (Homo sapiens, UniProt P11802)

>  <Class Assignment>
NOT MET

$$$$
>  <Smiles Code>
Nc1nc2c(s1)-c1nc(Nc3ccccc3)ncc1CC2

>  <Target Or System>
Cyclin-dependent kinase 4/cyclin D1 (Homo sapiens, UniProt P11802)

>  <Class Assignment>
NOT MET

$$$$
>  <Smiles Code>
Cc1nc2ccc3cnc(Nc4ccccc4)nc3c2s1

>  <Target Or System>
Cyclin-dependent kinase 4/cyclin D1 (Homo sapiens, UniProt P11802)

>  <Class Assignment>
NOT MET

$$$$
>  <Smiles Code>
Cc1nc2c(s1)-c1nc(Nc3cccc(O)c3)ncc1CC2

>  <Target Or System>
Cyclin-dependent kinase 4/cyclin D1 (Homo sapiens, UniProt P11802)

>  <Class Assignment>
NOT MET

$$$$

Query: State whether the measured pKi reaches 7, counting equality as reaching it, for COC(=O)c1ccc(Nc2ncc3c(n2)-c2sc(C)nc2CC3)cc1
Result: NOT MET

Query: # iterate: Cc1nc2ccc3cnc(N(C)c4cccc([N+](=O)[O-])c4)nc3c2s1
Result: NOT MET

Query: # iterate: Cc1nc2c(s1)-c1nc(N(C)c3cccc([N+](=O)[O-])c3)ncc1CC2
Result: NOT MET

Query: # iterate: Cc1nc2c(s1)-c1nc(Nc3ccc([N+](=O)[O-])cc3)ncc1CC2
Result: NOT MET

Query: # iterate: Cc1nc2c(s1)-c1nc(Nc3ccc(Cl)nc3)ncc1CC2
Result: MET

Query: # iterate: Cc1nc2c(s1)-c1nc(Nc3ccc(N(C)C)cc3)ncc1CC2
Result: MET

====

In this section we review reported pKi values for a set of molecules.
# Target Or System: CDK9/cyclin T1 (Homo sapiens, UniProt P50750)
# Sequence (O60563 whole entry): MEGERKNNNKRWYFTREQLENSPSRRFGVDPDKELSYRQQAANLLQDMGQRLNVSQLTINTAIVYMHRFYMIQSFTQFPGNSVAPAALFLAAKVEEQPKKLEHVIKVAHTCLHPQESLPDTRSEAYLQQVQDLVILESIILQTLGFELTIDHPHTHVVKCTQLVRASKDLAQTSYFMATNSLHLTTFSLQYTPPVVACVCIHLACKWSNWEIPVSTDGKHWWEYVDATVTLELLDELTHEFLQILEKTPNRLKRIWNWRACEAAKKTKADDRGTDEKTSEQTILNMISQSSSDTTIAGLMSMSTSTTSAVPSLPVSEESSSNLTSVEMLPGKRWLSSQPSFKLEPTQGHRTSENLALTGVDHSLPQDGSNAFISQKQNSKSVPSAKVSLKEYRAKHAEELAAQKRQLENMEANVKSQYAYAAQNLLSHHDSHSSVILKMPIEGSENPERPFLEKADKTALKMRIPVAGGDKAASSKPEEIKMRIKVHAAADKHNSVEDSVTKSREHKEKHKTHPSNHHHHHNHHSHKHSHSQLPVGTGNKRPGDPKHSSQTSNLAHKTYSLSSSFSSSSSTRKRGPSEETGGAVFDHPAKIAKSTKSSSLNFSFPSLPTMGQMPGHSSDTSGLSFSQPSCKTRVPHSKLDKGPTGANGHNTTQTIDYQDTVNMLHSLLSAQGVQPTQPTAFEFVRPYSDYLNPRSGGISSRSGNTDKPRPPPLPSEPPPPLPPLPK
# Sequence (P50750 whole entry): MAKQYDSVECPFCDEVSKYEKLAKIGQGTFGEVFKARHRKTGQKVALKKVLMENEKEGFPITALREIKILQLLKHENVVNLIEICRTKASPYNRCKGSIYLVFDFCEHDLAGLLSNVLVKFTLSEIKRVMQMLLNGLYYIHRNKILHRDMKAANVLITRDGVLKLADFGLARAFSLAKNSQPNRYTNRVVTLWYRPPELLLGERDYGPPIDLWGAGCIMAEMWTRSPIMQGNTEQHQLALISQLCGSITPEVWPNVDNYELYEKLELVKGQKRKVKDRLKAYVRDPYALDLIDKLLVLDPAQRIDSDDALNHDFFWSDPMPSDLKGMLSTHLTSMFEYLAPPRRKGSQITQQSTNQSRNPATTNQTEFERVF
# Assay Summary: inhibition of CDK9/CyclinT1
pKi: −log10 of the molar value.

Consider the worked cases shown below.
>  <Smiles Code>
Cc1nc2c(s1)-c1nc(N)ncc1CC2

>  <Target Or System>
CDK9/cyclin T1 (Homo sapiens, UniProt P50750)

>  <pKi>
< 5.00

$$$$
>  <Smiles Code>
Cc1nc2ccc3cnc(N(C)c4cccc([N+](=O)[O-])c4)nc3c2s1

>  <Target Or System>
CDK9/cyclin T1 (Homo sapiens, UniProt P50750)

>  <pKi>
< 5.00

$$$$

Please look at the following molecule next.
Query: Look at this molecule and give its reported pKi. Cc1nc2ccc3cnc(Nc4ccccc4)nc3c2s1
Result: < 5.00

====

# Target Or System: Cyclin-dependent kinase 7/ cyclin H (Homo sapiens, UniProt P50613)
# Sequence (P51946 whole entry): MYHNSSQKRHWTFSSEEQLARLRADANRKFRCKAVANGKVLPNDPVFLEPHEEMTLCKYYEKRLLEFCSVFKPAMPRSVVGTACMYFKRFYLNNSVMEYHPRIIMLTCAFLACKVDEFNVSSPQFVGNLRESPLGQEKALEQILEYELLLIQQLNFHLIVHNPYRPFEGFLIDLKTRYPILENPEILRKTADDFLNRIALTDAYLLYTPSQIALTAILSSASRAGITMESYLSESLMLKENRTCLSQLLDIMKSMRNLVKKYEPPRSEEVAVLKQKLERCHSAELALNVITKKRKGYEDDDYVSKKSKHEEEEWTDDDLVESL
# Sequence (P50613 whole entry): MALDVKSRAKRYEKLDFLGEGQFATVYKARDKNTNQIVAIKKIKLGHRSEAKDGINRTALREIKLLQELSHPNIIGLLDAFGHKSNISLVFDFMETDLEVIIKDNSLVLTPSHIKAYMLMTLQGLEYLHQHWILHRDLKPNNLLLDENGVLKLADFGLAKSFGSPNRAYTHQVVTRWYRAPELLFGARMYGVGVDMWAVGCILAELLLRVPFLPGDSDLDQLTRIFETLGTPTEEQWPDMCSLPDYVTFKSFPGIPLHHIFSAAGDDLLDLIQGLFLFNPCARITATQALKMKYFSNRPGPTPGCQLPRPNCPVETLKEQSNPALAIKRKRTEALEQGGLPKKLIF
# Assay Summary: inhibition of CDK7/Cyclin H/MAT1
pKi: −log10 of the molar value.
Measured Attribute: pKi

Query: Look at this compound and give its reported pKi. Cc1nc2ccc3cnc(N(C)c4cccc([N+](=O)[O-])c4)nc3c2s1
Result: < 5.00

Query: # iterate: Cc1nc2c(s1)-c1nc(Nc3ccc(C(F)(F)F)cc3)ncc1CC2
Result: < 5.00

Query: # iterate: Cc1nc2ccc3cnc(Nc4ccccc4)nc3c2s1
Result: < 5.00

# credit: ChEMBL document CHEMBL1157567
